Data provenance is PubChem BioAssay (NCI).

Consider the following compounds and their measured growth inhibition readings.
assay_name: NCI Yeast Anticancer Drug Screen. Data for the rad50 strain (AID 155);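 further: 0% = growth of vehicle-only cultures of the same strain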
setup_conditions: S. cerevisiae rad50 strain growth inhibition; at 5.0 µM (retest, dose inferred, filed as 0.5); hits give high values
Compounds without any hit were thinned out: in the full panel of roughly 79,000, 15% have a hit.
value_kind: growth inhibition (%)

compound: O=S(=O)(Nc1ccnn1-c1ccccc1)c1ccc(N=Cc2c3ccccc3nc3cc(Cl)ccc23)cc1
assay_value: 22
--
compound: CCN(CC)CCOC(=O)CCN1CC2CCC(CC2)C1
assay_value: 14
--
compound: CCOC(=O)c1c(C)[nH]c(C(c2ccccc2)c2[nH]c(C)c(C(=O)OCC)c2C)c1C
assay_value: -2
--
compound: Cc1ccc(S(=O)(=O)n2c3c(c4ccccc42)CCN2C(=O)C(S(=O)(=O)c4ccccc4)=CCC32)cc1 (stereo unspecified)
assay_value: 65
--
compound: NNC(=O)NN=C(c1ccccc1)c1ccccc1
assay_value: 0
--
compound: COc1ccc(C2C3=C(CCCC3=O)Oc3cc4c(cc32)OCO4)cc1 (stereo unspecified)
assay_value: 2
--
compound: O=[N+]([O-])/C(C(Cl)=C(Cl)Cl)=C(/Sc1ccccc1)N1CCOCC1
assay_value: 5
--
compound: CC(=O)Nc1ccc2c(c1)/C(=N/O)c1ccccc1-2
assay_value: -5
--
compound: Oc1c(Cl)c2ccccc2c2ccccc12
assay_value: -2
--
compound: FC(F)(F)C(C1=NC(C(F)(F)F)(C(F)(F)F)N=C(N2CCOCC2)O1)C(F)(F)F
assay_value: 24
--
compound: Cc1c(N)cccc1[N+](=O)[O-]
assay_value: 2
--
compound: COC1(OC)CNC(C(=O)O)C1 (stereo unspecified)
assay_value: -154
--
compound: C[N+](C)([O-])CCOc1cc2c(c3ccccc13)-c1ccccc1C2=O
assay_value: 1
--
compound: Cc1cc(C)c(C(=O)/C=C/C(=O)c2ccccc2)c(C)c1
assay_value: 86
--
compound: CN1C=CC(C(O)(c2ccccc2)c2ccccc2)CC1 (stereo unspecified)
assay_value: -2
--
compound: CC(/C=C/c1cccs1)=N\C(=S)NC(N)=S
assay_value: -1

###

Consider the following molecules and their measured growth inhibition readings.
assay_name: NCI Yeast Anticancer Drug Screen. Data for the bub3 strain (AID 167)
setup_conditions: S. cerevisiae bub3 mutant strain, at 5.0 µM (retest, dose inferred, filed as 0.5), hits give high values
Compounds without any hit were thinned out: in the full panel of roughly 79,000, 15% have a hit.
value_kind: growth inhibition (%)

molecule: COC1C=COC2(C)Oc3c(C)c(O)c4c(O)c(c(C5SCCS5)c(O)c4c3C2=O)NC(=O)C(C)=C/C=C\C(C)C2OC(C)(C)OC(C2C)C(C)C(OC(C)=O)C1C (centres undefined)
assay_value: 5
//
molecule: COC(=O)Nc1nc2ccc(C(=O)c3ccccc3)cc2[nH]1
assay_value: 10
//
molecule: CCN(CC)CCCNc1ncc(C)c2c1c1ccc3c(O)cccc3c1n2C
assay_value: 19
//
molecule: O=NN(CCCl)C(=O)Oc1cc(Cl)c(Cl)cc1Cl
assay_value: 48

###

assay_name: NCI Yeast Anticancer Drug Screen. Data for the rad50 strain (AID 155);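 further: 0% = growth of vehicle-only cultures of the same strain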
setup_conditions: S. cerevisiae rad50 strain growth inhibition; at 50.0 µM; hits give high values
Compounds without any hit were thinned out: in the full panel of roughly 79,000, 15% have a hit.
label 1 means recorded growth inhibition is 90% or above; label 0 means it is below 90%.

molecule: C1CSCCCSCCCSCCCSCCCSC1
label_class: label 0
--
molecule: N#C/C=C(\c1ccccc1)c1c[nH]c2ccccc12
label_class: label 1
--
molecule: CCN1/C(=C\c2cc[n+](CC)c3ccccc23)C=Cc2ccccc21
label_class: label 0
--
molecule: Cc1ccc2c(c1)C(=O)N(CC[P+](c1ccccc1)(c1ccccc1)c1ccccc1)C2=O
label_class: label 0
--
molecule: CC(NNC(=S)N(C)C1CCCCC1)c1cc2ccccc2cn1 (centres undefined)
label_class: label 0
--
molecule: COC1(OC)OC2=C(OC1(OC)OC)c1ccccc1C2=O
label_class: label 0
--
molecule: COC1CCC(O)C(CO)O1 (centres undefined)
label_class: label 1
--
molecule: O=C1c2ccccc2C(c2ccccc2)(c2ccccc2)N1c1ccccc1
label_class: label 1
--
molecule: Cc1c[n+](=O)c2ccccc2n1[O-]
label_class: label 0
--
molecule: CCCN=Cc1cnc(C#N)c(N)n1
label_class: label 0
--
molecule: C#CC(C)(C)Nc1c2ccccc2nc2ccccc12
label_class: label 1
--
molecule: Cc1c(N)cccc1[N+](=O)[O-]
label_class: label 1
--
molecule: O=C(O)CC1(C(=O)O)CCCCC1
label_class: label 0
--
molecule: O=C(c1ccccc1)c1ccccc1S(=O)(=O)Nc1ccccc1
label_class: label 0
--
molecule: O=[N+]([O-])c1ccc2c(N=Nc3ccc4ccccc4c3O)c(O)cc(S(=O)(=O)O)c2c1
label_class: label 0

###

assay_name: NCI Yeast Anticancer Drug Screen. Data for the sgs1 mgt1 strain (AID 161);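 further: 0% = growth of cultures given vehicle only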
setup_conditions: S. cerevisiae sgs1 mgt1 strain, at 5.0 µM (retest, dose inferred, filed as 0.5), hits give high values
The panel holds about 79,000 compounds, 15% with a hit somewhere; the sample as a whole holds those more often.
Consider the following compounds and their measured growth inhibition readings.

test_smiles: Cc1ccc(NC(=O)CSC(N)=O)cc1
measure_unit: %
growth inhibition: 3
//
test_smiles: CCN(CC)CCNc1c(C)ccc2cccnc12
measure_unit: %
growth inhibition: -2
//
test_smiles: Nc1ccc2c(SCCSc3c4ccccc4nc4cc(N)ccc34)c3ccccc3nc2c1
measure_unit: %
growth inhibition: 28
//
test_smiles: COc1cc2oc(-c3ccc(O)cc3O)c(CC=C(C)C)c(=O)c2c(O)c1/C=C/C(C)C
measure_unit: %
growth inhibition: 10

###

assay_name: NCI Yeast Anticancer Drug Screen. Data for the cln2 rad14 strain (AID 165);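 further: 0% = growth equal to vehicle treated cultures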
setup_conditions: S. cerevisiae cln2 rad14 strain, at 5.0 µM (retest, dose inferred, filed as 0.5), hits give high values
The panel holds about 79,000 compounds, 15% with a hit somewhere; the sample as a whole holds those more often.
Consider the following molecules and their measured growth inhibition readings.
value_kind: growth inhibition (%)

molecule: Nc1ccc(SSc2ccc(N)cc2)cc1
value_kind: growth inhibition
assay_value: -7
//
molecule: COC(=O)c1nc(=S)[nH]c(C(=O)OC)c1C(=O)c1ccccn1
value_kind: growth inhibition
assay_value: 2
//
molecule: O=C(/C=C\c1ccccc1)N1c2ccccc2CC1c1c[nH]c2ccccc12 (configuration not stated)
value_kind: growth inhibition
assay_value: -1
//
molecule: O=c1c(S(=O)(=O)Oc2ccccc2)coc2cc(F)ccc12
value_kind: growth inhibition
assay_value: 99
//
molecule: CC(=O)/C(=C\c1ccccc1Cl)C(=O)CCN(C)C
value_kind: growth inhibition
assay_value: 6
//
molecule: COc1ccc(/C=C(\C#N)c2ccccc2)cc1OC
value_kind: growth inhibition
assay_value: 30
//
molecule: Cc1[nH]nc(-c2ccon2)c1N=O
value_kind: growth inhibition
assay_value: 22
//
molecule: CC1(C)CC([P+](c2ccccc2)(c2ccccc2)c2ccccc2)=NN1
value_kind: growth inhibition
assay_value: 48
//
molecule: CC(=O)O[C@H]1CC[C@H]2[C@@H]3CCc4cc(O)c(I)cc4[C@H]3CC[C@]12C
value_kind: growth inhibition
assay_value: 21
//
molecule: CCOC(=O)C(CCSC)C(=O)OCC
value_kind: growth inhibition
assay_value: 1
//
molecule: Cn1cc(/C=C/[N+](=O)[O-])c2ccc(OCc3ccccc3)cc21
value_kind: growth inhibition
assay_value: 10
//
molecule: C/C(=N\NC(=S)N(C)C1CCCCC1)c1ccc2ccccc2n1
value_kind: growth inhibition
assay_value: 33
//
molecule: CC(=O)c1ccc(OCc2ccccc2)cc1
value_kind: growth inhibition
assay_value: -3
//
molecule: COc1ccc(C(c2cc3c(cc2O)OCO3)N2CCOCC2)cc1OC (configuration not stated)
value_kind: growth inhibition
assay_value: 0
//
molecule: CCOC(=O)C[n+]1c(C)cc(-c2ccccc2)cc1C
value_kind: growth inhibition
assay_value: -1
//
molecule: CN(C)CCNc1ccc(O)c2sc3ccccc3c(=O)c12
value_kind: growth inhibition
assay_value: -7
//
molecule: CCCCC(CC)(CCC)CCN (configuration not stated)
value_kind: growth inhibition
assay_value: 4

###

assay_name: NCI Yeast Anticancer Drug Screen. Data for the mlh1 rad18 strain (AID 175)
setup_conditions: S. cerevisiae mlh1 rad18 strain growth inhibition; at 50.0 µM (retest, dose inferred, filed as 5.0)
This is part of a sample that, as a whole, favours compounds with a hit. Of some 79,000 tested, about 15% had one in any assay. Calls of active or inactive are those of the source. Cut-off read from the data, not from the text of the source: active = growth inhibition above about 70%; inactive = the rest.
Outcomes: active, inactive

compound: O=c1ccccc(Br)c1O
label_class: active

compound: CCCCCC(CO)C(O)(C(F)(F)F)C(F)(F)F (stereo not drawn)
label_class: inactive

compound: O=C(CC(=O)c1ccccc1)CC1(O)CCCCC1
label_class: inactive

###

Consider the following compounds and their measured growth inhibition readings.
assay_name: NCI Yeast Anticancer Drug Screen. Data for the sgs1 mgt1 strain (AID 161);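 further: 0% = growth of cultures given vehicle only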
setup_conditions: S. cerevisiae sgs1 mgt1 strain, at 5.0 µM (retest, dose inferred, filed as 0.5), hits give high values
About 79,000 compounds went through this panel and 15% of them were active in at least one assay; those are over-represented in the sample as a whole.

compound: O=c1c(NO)c([N+](=O)[O-])cnn1-c1ccccc1
measure_unit: %
growth inhibition: -7
//
compound: O=Nc1c(O)ccc2ccccc12.[Fe].[Na+]
measure_unit: %
growth inhibition: 8
//
compound: CNC(=O)N1N[C@H](c2ccccc2)[C@@H]1c1ccccc1
measure_unit: %
growth inhibition: 21
//
compound: N#Cc1c(-c2ccc(Cl)cc2)c(-c2ccc(Cl)cc2)nn(CCOC(=O)CCC(=O)O)c1=O
measure_unit: %
growth inhibition: 22
//
compound: NC(=O)NN=C1CSSC1
measure_unit: %
growth inhibition: 3
//
compound: CC(C)(c1ccccc1)c1ccc2[nH]c(C(C)(C)c3ccccc3)c(CC(=O)O)c2c1
measure_unit: %
growth inhibition: 10
//
compound: CCOC(=O)N1CCN(CCCOc2ccc(Cl)cc2Cc2ccccc2)CC1
measure_unit: %
growth inhibition: 59
//
compound: Clc1ccc(/C=C\c2ccncc2)cc1
measure_unit: %
growth inhibition: 4
//
compound: S=c1nc(N2CCCCC2)ss1
measure_unit: %
growth inhibition: 18
//
compound: CC(C(=O)O)c1cn(Cc2ccccc2)c2ccccc12 (centres undefined)
measure_unit: %
growth inhibition: -28
//
compound: O=C(O)CCCCC1CCCCC1.[Cu+2]
measure_unit: %
growth inhibition: 13
//
compound: O=[N+]([O-])c1ccc(Cl)cc1C=NC12CC3CC(CC(C3)C1)C2
measure_unit: %
growth inhibition: 16
//
compound: O=C(Nc1c(Cl)cccc1Cl)Oc1cccc2cccnc12
measure_unit: %
growth inhibition: 60
//
compound: O=C1OCc2cccc3cccc1c23
measure_unit: %
growth inhibition: 4
//
compound: O=C(O)c1ccc2c(c1)CC1(C2)Cc2cc3c(cc2C1=O)CCC3 (centres undefined)
measure_unit: %
growth inhibition: 19
//
compound: O=S(=O)(O)SCCNCCCCCC1CCCCC1
measure_unit: %
growth inhibition: 19
//
compound: CC1=C(C(=O)Nc2cc(O)ccc2O)C(c2cccc([N+](=O)[O-])c2)C(C(=O)Nc2cc(O)ccc2O)=C(C)N1
measure_unit: %
growth inhibition: -14
//
compound: CC12CC(Br)(Br)C(=O)C3C1CCCC32
measure_unit: %
growth inhibition: 37
//
compound: CC(C(O)c1ccccc1)[N+](=O)[O-] (centres undefined)
measure_unit: %
growth inhibition: 6
//
compound: COc1ccc2nc3cc(Cl)ccc3c(NCCNCCCNC(=O)c3cc(-c4ccccc4)nc4ccccc34)c2c1
measure_unit: %
growth inhibition: -5
//
compound: Nc1c(/C=C/c2cc3cc(C4=NCCN4)ccc3o2)[nH]c2cc(C3=NCCN3)ccc12
measure_unit: %
growth inhibition: -2
//
compound: Cc1cc(-c2ccccc2)nc2nc3ccccc3n12
measure_unit: %
growth inhibition: -11
//
compound: N/N=C(\N)c1ccc2ccc3cccnc3c2n1
measure_unit: %
growth inhibition: -2
//
compound: CC1=NC(C)=C(/C(C)=N/NC(=O)c2ccccc2O)C(C)/C1=C(/C)NNC(=O)c1ccccc1O (centres undefined)
measure_unit: %
growth inhibition: -1
//
compound: O=C(Nc1ccccc1F)C(Br)C(Br)c1ccccc1 (centres undefined)
measure_unit: %
growth inhibition: 23
//
compound: O=C1c2ccccc2C(=O)c2sc(Nc3cccc(Cl)c3)nc21
measure_unit: %
growth inhibition: 92
//
compound: CC(=O)OC1CCC2(C)C3CCC4(C)C(C(C)CCCC(C)C)CCC4C3CCC23OC13C (centres undefined)
measure_unit: %
growth inhibition: -5
//
compound: CC(=O)/C(=C\c1ccccc1Cl)C(=O)CCN(C)C
measure_unit: %
growth inhibition: 0
//
compound: COc1ccc(OC)c(C(Cc2ccnc3ccccc23)Cc2ccnc3ccccc23)c1
measure_unit: %
growth inhibition: 3
